Quick reference: remaining at 0 h of the listed items.
- ASSAY_NAME: Human plasma stability assay
- Format: in vitro ADME
QUANTITY_KIND: remaining at 0 h

> print(dat)
                                   compound   val
1  CC(C)[N+](C)(CCOC(=O)C1c2ccccc2Oc2ccccc21)C(C)C [Propantheline bromide, reference compound]  100%
2  COc1ccc(N(C)C(=O)[C@H](Cc2ccccc2)NC(=O)Cn2cc(-c3ccccc3NC(=O)c3ccccc3F)nn2)cc1  100%
